System: SF-268 CNS
Experiment: NCI-60 one-dose screen, 48 h (100 = growth as untreated, 0 = no growth, -100 = all killed)
Conditions: 10 µM unless noted
Method: Cells are grown in 96 well plates and exposed to the test compound for 48 hours. Compounds are tested at a single concentration, which is 10^-5 M for most compounds. The reported endpoint is percent growth (GI% or GIPRCNT), where numbers from 0 - 100% represent growth inhibition, and numbers from -100% - 0 represent cell death. For example, a value of 40 represents 60% growth inhibition. A value of 0 means no net growth occurred over the course of the experiment. […]
The panel holds about 83,000 compounds, 20% with a hit somewhere; the sample as a whole holds those more often.
Readout kind: growth (%)
Express the result in % but write the number alone.

For orientation, consider the following solved cases.
>  <Molecule>
N=C1C=C(N)C(=O)c2ccccc21

>  <Val>
-68.4

$$$$
>  <Molecule>
COc1ccc(C(OCC2OC(n3ccc(NC(=O)c4ccccc4)nc3=O)C(O)C2O)(c2ccccc2)c2ccccc2)cc1 (stereo unspecified)

>  <Val>
54.2

$$$$
>  <Molecule>
C/C(=N\NC(=S)N1CC2CCC(CC2)C1)c1ccccn1

>  <Val>
15.5

$$$$
>  <Molecule>
CCSc1nc2ccccc2o1

>  <Val>
96.1

$$$$
>  <Molecule>
COc1cc(-c2ccc(-[n+]3nc(-c4ccc([N+](=O)[O-])cc4)nn3-c3ccc([N+](=O)[O-])cc3)c(OC)c2)ccc1-[n+]1nc(-c2ccc([N+](=O)[O-])cc2)nn1-c1ccc([N+](=O)[O-])cc1

>  <Val>
-33.9

$$$$
>  <Molecule>
COc1ccc2c(c1OC)OCC(CN(C)C)C2=O (stereo unspecified)

>  <Val>
110

$$$$
>  <Molecule>
CCc1cnc2ccccc2c1/C=C/c1ccc(N(C)C)cc1

>  <Val>
57.4

$$$$
>  <Molecule>
CCCCCC/C=C1\CCC(CN2CCCC2)C1=O (stereo unspecified)

>  <Val>
102

$$$$
>  <Molecule>
Nc1ccc(C(=O)/C=C/c2ccccc2)cc1

>  <Val>
85.8

$$$$
>  <Molecule>
O=C(CCl)N(c1ccccc1)c1ccccc1

>  <Val>
105

$$$$

From here, focus on the item given below.
(Q) Dear colleague, please send me the reported growth for O=[N+]([O-])c1ccc2c(c1)Cc1ccccc1-2 when you can.
(A) 95.9

* * *

Test system: SF-539 CNS
Assay: NCI-60 one-dose screen, 48 h
Settings: 10 µM unless noted
Protocol: Cells are grown in 96 well plates and exposed to the test compound for 48 hours. Compounds are tested at a single concentration, which is 10^-5 M for most compounds. The reported endpoint is percent growth (GI% or GIPRCNT), where numbers from 0 - 100% represent growth inhibition, and numbers from -100% - 0 represent cell death. For example, a value of 40 represents 60% growth inhibition. A value of 0 means no net growth occurred over the course of the experiment. […]
Compounds without any hit were thinned out: in the full panel of roughly 83,000, 20% have a hit. Active and inactive are the calls of the source. How the source made its calls: active means growth percent below 10; inactive means the rest.
Your response should consist of one outcome taken from t = active, f = inactive

(Q) # fetch the recorded call for COc1ccc2nc3cc([N+](=O)[O-])ccc3c(NNc3ccccc3)c2c1 here
(A) f

(Q) Hi team, can someone confirm the assay call for CN(C)c1ccc(/C=C/c2sc3ccc4ccccc4c3[n+]2C)cc1 ?
(A) t

(Q) So what was the verdict on COC1=CC(=O)c2c(O)c3c(c(O)c2C1=O)CC(C)(O)OC3 (stereo unspecified) in this test?
(A) t

(Q) What classification did CC1=CC(=NC(=O)CBr)C=C/C1=N\S(=O)(=O)c1ccccc1 end up with in this test?
(A) f

(Q) Recorded test outcome, item CCCCCCCCCCCCCCCCSC(=NCC)NCC
(A) f

(Q) Hi, sorry to bother you, what did the test record for O=[N+]([O-])CC(O)c1ccccc1 (stereo unspecified) ?
(A) f

(Q) Which outcome was entered for the molecule O/N=C1\c2ccccc2-c2ccc(F)cc21 in this test?
(A) f

(Q) Which result was noted for this molecule in the test: O=C(Cc1nc2cc(Cl)c(Cl)cc2nc1CC(=O)c1ccccc1)c1ccccc1
(A) f

* * *

tested on: HOP-62 NSCLC; test: NCI-60 one-dose screen, 48 h; conditions: 10 µM unless noted
The panel holds about 83,000 compounds, 20% with a hit somewhere; the sample as a whole holds those more often. Active and inactive are the calls of the source. Rule for the calls: active = growth percent below 10; inactive = the rest.
One label from this list, please: label 1 (active), label 0 (inactive)

Use the examples below as a reference point.
>  <Compound>
S=C1SCN(Cc2cccs2)CN1Cc1cccs1

>  <Group>
label 0

$$$$
>  <Compound>
OCCOSCCO

>  <Group>
label 0

$$$$
>  <Compound>
CCCCCCCCCCCCCCCCCC[S+](C)CC (stereo unspecified)

>  <Group>
label 0

$$$$
>  <Compound>
CCC1CCCCN1C(=S)N/N=C(\C)c1ccccn1 (stereo unspecified)

>  <Group>
label 0

$$$$
>  <Compound>
C/C=C/c1cc2c(c(=O)o1)C(=O)[C@@H](O)[C@H](C)O2

>  <Group>
label 0

$$$$

Would you kindly look at the next entry?
(Q) # outcome recorded in this test, key = NC1=C(Br)C(=O)c2ncccc2C1=O
(A) label 1

* * *

Catalogue of growth readings, one per entry.
system: MDA-MB-435 melanoma; assay: NCI-60 one-dose screen, 48 h (100 = growth as untreated, 0 = no growth, -100 = all killed); settings: 10 µM unless noted
The panel holds about 83,000 compounds, 20% with a hit somewhere; the sample as a whole holds those more often.
Numbers only here, please. The scale is %.

>  <Molecule>
O=[N+]([O-])c1ccc2c(c1)Cc1ccccc1-2

>  <System under test>
MDA-MB-435 melanoma

>  <growth (%)>
99.4

$$$$
>  <Molecule>
CCCCCCCCCCCC[n+]1ccccc1 (tested in a mixture with another compound)

>  <System under test>
MDA-MB-435 melanoma

>  <growth (%)>
-74

$$$$
>  <Molecule>
CCOC(=O)c1c(C)[nH]c2ccc(O)cc12

>  <System under test>
MDA-MB-435 melanoma

>  <growth (%)>
100

$$$$
>  <Molecule>
CCC(C)(O)Cc1ccc(Cl)cc1 (stereo not given)

>  <System under test>
MDA-MB-435 melanoma

>  <growth (%)>
101

$$$$

We next turn to a different molecule, shown below.
(Q) Complete the entry with growth for CCCCCCCCCCCC[n+]1ccc2ccccc2c1
(A) -69.6

* * *

system: SF-268 CNS; assay: NCI-60 one-dose screen, 48 h (100 = growth as untreated, 0 = no growth, -100 = all killed); conditions: 10 µM unless noted
The panel holds about 83,000 compounds, 20% with a hit somewhere; the sample as a whole holds those more often. Calls of active or inactive are those of the source. The calls were made as follows: active = growth percent below 10; inactive = the rest.
Readout kind: growth

Answered examples (2):
>  <Cpd smiles>
Cc1c(O)ccc(SC#N)c1C

>  <Val>
87.1% (inactive)

$$$$
>  <Cpd smiles>
CC(C)=C1C=C2CC[C@@H]3[C@](C)(CCC[C@@]3(C)C(=O)O)[C@H]2CC1

>  <Val>
97% (inactive)

$$$$

Next molecule, growth to be filled in.
(Q) For the molecule Cc1nn(CCO)c(C)c1N=[N+]([O-])c1c(C)nn(CCO)c1C , report growth.
(A) 81.3% (inactive)

* * *

system: MCF7 breast; assay: NCI-60 one-dose screen, 48 h (100 = growth as untreated, 0 = no growth, -100 = all killed); conditions: 10 µM unless noted
The panel holds about 83,000 compounds, 20% with a hit somewhere; the sample as a whole holds those more often.
Readout kind: growth (%)
Unit % implied. Number only.

>  <Compound>
CCCCCCCCCCCCCCCCCC[S+](C)CC (stereo unspecified)

>  <System under test>
MCF7 breast

>  <Readout kind>
growth

>  <Display unit>
%

>  <Val>
36.3

$$$$
>  <Compound>
Cn1ccc(=Nc2ccc(NC(=O)c3ccc(N=c4ccn(C)c5ccc([N+](=O)[O-])cc45)cc3)cc2)cc1

>  <System under test>
MCF7 breast

>  <Readout kind>
growth

>  <Display unit>
%

>  <Val>
55.6

$$$$
>  <Compound>
Cc1cc(N/N=C/c2ccccn2)nc2ccccc12

>  <System under test>
MCF7 breast

>  <Readout kind>
growth

>  <Display unit>
%

>  <Val>
14

$$$$

(Q) Give a short answer stating reported growth for O=C(/C(Cl)=N/O)c1ccc(-c2ccccc2)cc1 .
(A) 89.5

(Q) For the compound c1ccc(-c2cccc(-c3ccccn3)n2)nc1 , give its measured growth value.
(A) 14.1

(Q) Given the compound Cc1cc(I)nc2ccccc12 , write its reported growth.
(A) 101

* * *

tested on: UACC-62 melanoma; assay: NCI-60 one-dose screen, 48 h (100 = growth as untreated, 0 = no growth, -100 = all killed); settings: 10 µM unless noted
This is part of a sample that, as a whole, favours compounds with a hit. Of some 83,000 tested, about 20% had one in any assay.
Response key: y means growth >= 60%; n means growth < 60%.

>  <Compound>
N#C/C(=N\Nc1ccc(Cl)cc1)C(=O)C1CC1

>  <System under test>
UACC-62 melanoma

>  <Group>
n

$$$$

(Q) Could you please find out whether CCCCCCCCCCCC(=O)OC(C)C(=O)NCCCC (stereo not given) has growth that meets 60% or exceeds it?
(A) y

(Q) Assess whether reported growth for COc1cc2c(c(OC)c1OC)-c1ccc(NCc3ccccc3)c(=O)cc1[C@@H](NC(C)=O)CC2 sits at 60% or higher.
(A) n

(Q) In plain terms: is recorded growth at least 60% for CC(=O)c1c(O)c(C)c(O)c2c1OC1=CC(=O)C(C(C)=O)C(=O)C12C (stereo not given) ?
(A) y

(Q) Can CN(C)c1ccc(/C=C/c2sc3ccc4ccccc4c3[n+]2C)cc1 be said to have growth at or above 60%?
(A) n

(Q) Please tell me: is the compound O=C1/C(=C\c2ccc([N+](=O)[O-])cc2)CS(=O)(=O)C/C1=C/c1ccc([N+](=O)[O-])cc1 at or over 60% in terms of growth?
(A) n

(Q) API: above_or_equal(metric=growth, cutoff=60%) for item O=[N+]([O-])c1ccc(C(Br)c2ccc([N+](=O)[O-])cc2)cc1
(A) y

(Q) Answer whether growth of OC(Cc1cc(CC(O)(C(F)(F)F)C(F)(F)F)nc(CC(O)(C(F)(F)F)C(F)(F)F)c1)(C(F)(F)F)C(F)(F)F is greater than or equal to 60%.
(A) n

(Q) Reported growth reaches at least 60% for O=[N+]([O-])/C(=C/c1ccccc1)c1ccccc1 ?
(A) y

(Q) Evaluate O=C(/C(Cl)=N/O)c1ccc(-c2ccccc2)cc1 : growth at minimum 60%?
(A) y
